Target: AHR (Homo sapiens, UniProt P35869)
Construct: U87 MG glioblastoma cells (ATCC #HTB-14) endogenously expressing AHR; endogenous in cells; host or cells: U87 MG glioblastoma cells (ATCC #HTB-14)
Test: In vitro assay 1: antagonism in human cell line (AHR transactivation, firefly luciferase reporter, kynurenic acid prestimulated)
Assay type: cell-based
Conditions: AHR Antagonism Human IC50 [M]
# log10(IC50) annotations
Scale type: logarithmic (base 10). Underlying IC50 unit: M.

Here's what some known entries look like.
molecule	log10(IC50)
O=C1NCCCC[C@H]1Nc1nc2ccccc2c2nc(-c3cccc(F)c3)nn12 [Example 11]	-8.87
Cn1cc(-c2nc3c4cccc(C(F)(F)F)c4nc(N[C@@H]4COCCNC4=O)n3n2)cn1 [Example 732]	-8.88

Give me measured log10(IC50), please, for this molecule: COc1ccc(-c2nc3c4cccc(Br)c4nc(N[C@@H]4CCNC4=O)n3n2)cc1 [Example 218]
-8.06

Give me measured log10(IC50), please, for this molecule: O=C1NCC[C@H]1Nc1nc2ccccc2c2nc(-c3cccc(OC(F)(F)F)c3)nn12 [Example 310]
-7.00

Give me measured log10(IC50), please, for this molecule: Cn1cc(-c2nc3c4cccc(C(F)(F)F)c4nc(NC4C(=O)NCC4(C)C)n3n2)cn1 (single isomer, unassigned; (-)) [Example 729]
-5.44

====

# IC50 annotations
Biological target: AHR (Homo sapiens, UniProt P35869)
Construct: U87 MG glioblastoma cells (ATCC #HTB-14) endogenously expressing AHR; endogenous in cells; host or cells: U87 MG glioblastoma cells (ATCC #HTB-14)
Sequence (P35869 11-848): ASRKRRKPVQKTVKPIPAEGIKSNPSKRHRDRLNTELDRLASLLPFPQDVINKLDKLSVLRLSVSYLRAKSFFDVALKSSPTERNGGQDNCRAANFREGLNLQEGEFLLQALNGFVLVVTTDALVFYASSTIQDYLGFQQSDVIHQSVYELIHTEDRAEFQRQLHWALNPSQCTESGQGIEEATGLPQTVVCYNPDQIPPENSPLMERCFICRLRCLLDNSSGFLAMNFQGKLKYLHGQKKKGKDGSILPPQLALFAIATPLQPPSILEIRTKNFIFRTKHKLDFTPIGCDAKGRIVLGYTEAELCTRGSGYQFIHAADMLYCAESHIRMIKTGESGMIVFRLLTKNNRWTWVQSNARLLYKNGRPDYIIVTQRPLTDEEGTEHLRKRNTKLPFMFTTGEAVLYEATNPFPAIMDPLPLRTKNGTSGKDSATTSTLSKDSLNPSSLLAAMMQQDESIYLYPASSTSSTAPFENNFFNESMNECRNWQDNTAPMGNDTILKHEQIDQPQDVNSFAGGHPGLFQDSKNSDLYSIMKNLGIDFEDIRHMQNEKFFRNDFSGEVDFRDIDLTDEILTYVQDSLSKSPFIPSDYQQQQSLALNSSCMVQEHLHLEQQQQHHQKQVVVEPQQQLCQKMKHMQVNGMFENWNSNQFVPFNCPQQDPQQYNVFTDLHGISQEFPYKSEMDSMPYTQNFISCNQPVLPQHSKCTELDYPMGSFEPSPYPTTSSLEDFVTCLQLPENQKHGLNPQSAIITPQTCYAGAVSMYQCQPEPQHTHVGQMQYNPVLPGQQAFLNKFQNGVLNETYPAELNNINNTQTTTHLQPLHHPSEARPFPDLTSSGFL
Test: In vitro assay 1: antagonism in human cell line (AHR transactivation, firefly luciferase reporter, kynurenic acid prestimulated)
Format: cell-based
Settings: AHR Antagonism Human IC50 [M], firefly luciferase reporter
Express it in M; write the number only.

Here's what some known entries look like.
molecule	unit_of_measure	IC50
CC(C)n1cc(-c2nc3c4cccc(S(C)(=O)=O)c4nc(N[C@@H]4CCCCNC4=O)n3n2)cn1	M	1.29e-08
CCn1cc(-c2nc3c4cccc(F)c4nc(N[C@@H]4CCCCNC4=O)n3n2)cn1	M	6.25e-09
COc1ccc(-c2nc3c4cccc(Br)c4nc(N[C@@H](C(=O)N4CCN(C)CC4)C(C)C)n3n2)cc1	M	2.47e-09
COc1ccc(-c2nc3c4cccc(Br)c4nc(N[C@H](C)C(=O)NCCCN(C)C)n3n2)cc1	M	1.82e-08
O=C1NCCNC[C@@H]1Nc1nc2c(Br)cccc2c2nc(-c3cnn(C4CC4)c3)nn12	M	2.14e-08

Report value only: IC50, AHR (Homo sapiens, UniProt P35869), COc1ccc(-c2nc3c4cccc(S(C)(=N)=O)c4nc(N[C@@H]4CCCCNC4=O)n3n2)cc1 (single isomer, unassigned) [Example 855]
2.28e-09

Report value only: IC50, AHR (Homo sapiens, UniProt P35869), CCNC(=O)[C@@H](CC)Nc1nc2c(Br)cccc2c2nc(-c3ccc(Cl)cc3OC(F)F)nn12
7.57e-10

Report value only: IC50, AHR (Homo sapiens, UniProt P35869), COc1ccc(-c2nc3c4cccc(CSC)c4nc(N[C@@H]4CCCCNC4=O)n3n2)cc1
2.98e-09

Report value only: IC50, AHR (Homo sapiens, UniProt P35869), O=C1NCCCC[C@H]1Nc1nc2c(C(F)(F)F)cccc2c2nc(-c3ccc(Cl)cc3)nn12
1.12e-09

====

# IC50 annotations
Target: AHR (Homo sapiens, UniProt P35869)
Construct: U87 MG glioblastoma cells (ATCC #HTB-14) endogenously expressing AHR; endogenous in cells; host or cells: U87 MG glioblastoma cells (ATCC #HTB-14)
Sequence (P35869 11-848): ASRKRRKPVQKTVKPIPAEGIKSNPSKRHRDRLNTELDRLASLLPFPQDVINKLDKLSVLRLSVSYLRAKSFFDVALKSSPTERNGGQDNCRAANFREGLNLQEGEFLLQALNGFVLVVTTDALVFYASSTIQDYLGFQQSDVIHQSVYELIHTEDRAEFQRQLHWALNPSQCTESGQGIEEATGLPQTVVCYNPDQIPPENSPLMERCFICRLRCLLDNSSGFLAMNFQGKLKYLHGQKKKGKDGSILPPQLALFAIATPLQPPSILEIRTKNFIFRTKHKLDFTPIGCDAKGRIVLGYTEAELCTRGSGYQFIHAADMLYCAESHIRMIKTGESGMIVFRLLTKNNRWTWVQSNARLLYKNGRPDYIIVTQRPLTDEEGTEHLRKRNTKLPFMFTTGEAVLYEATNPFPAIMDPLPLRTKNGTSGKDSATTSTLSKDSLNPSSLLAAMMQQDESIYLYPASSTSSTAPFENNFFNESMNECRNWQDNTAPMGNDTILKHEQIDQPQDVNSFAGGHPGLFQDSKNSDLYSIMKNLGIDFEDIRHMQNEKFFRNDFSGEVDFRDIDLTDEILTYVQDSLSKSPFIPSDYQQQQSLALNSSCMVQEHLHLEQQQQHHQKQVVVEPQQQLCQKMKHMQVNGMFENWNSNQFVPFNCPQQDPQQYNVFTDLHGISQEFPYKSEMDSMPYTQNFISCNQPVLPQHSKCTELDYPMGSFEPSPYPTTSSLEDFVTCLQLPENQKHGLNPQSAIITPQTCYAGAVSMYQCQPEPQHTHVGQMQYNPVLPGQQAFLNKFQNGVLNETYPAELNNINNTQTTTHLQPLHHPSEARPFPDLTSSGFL
Experiment: In vitro assay 1: antagonism in human cell line (AHR transactivation, firefly luciferase reporter, kynurenic acid prestimulated)
Assay type: cell-based
Conditions: AHR Antagonism Human IC50 [M], firefly luciferase reporter
Express it in M; write the number only.

smiles_record	unit_of_measure	IC50
CC(C)n1cc(-c2nc3c4cccc(C#N)c4nc(N[C@@H]4CNCCNC4=O)n3n2)cn1	M	1.3e-07

Give me measured IC50, please, for this molecule: C[C@@H](Nc1nc2c(C(F)(F)F)cccc2c2nc(-c3cnn(C)c3)nn12)C(=O)N1CCN(C)CC1
1.69e-08

Give me measured IC50, please, for this molecule: C[C@@H]1COCCN1C(=O)[C@@H](C)Nc1nc2c(Br)cccc2c2nc(-c3cnn(C)c3)nn12
2.16e-08

Give me measured IC50, please, for this molecule: COc1ccc(-c2nc3c4cccc(Br)c4nc(N[C@@H](C(=O)N4CCOCC4)C(C)C)n3n2)cc1
6.08e-09

Give me measured IC50, please, for this molecule: O=C1NCCNC[C@H]1Nc1nc2c(C(F)(F)F)cccc2c2nc(-c3ccc(Cl)cc3)nn12
5.91e-10

Give me measured IC50, please, for this molecule: O=C1NCCCC[C@H]1Nc1nc2c(Br)cccc2c2nc(-c3cnn(CC4CC4)c3)nn12
1.77e-09

====

Target: AHR (Homo sapiens)
Construct: U87 MG glioblastoma cells (ATCC #HTB-14) endogenously expressing AHR; endogenous in cells; host or cells: U87 MG glioblastoma cells (ATCC #HTB-14)
Assay: In vitro assay 1: antagonism in human cell line (AHR transactivation, firefly luciferase reporter, kynurenic acid prestimulated)
Format: cell-based
Conditions: AHR Antagonism Human IC50 [M], firefly luciferase reporter
parameter_measured: IC50

smiles_record	parameter_measured	observed
COCc1cccc2c1nc(N[C@@H]1CCCCNC1=O)n1nc(-c3cnn(C)c3)nc21	IC50	1.9e-08 M
COc1ccc(-c2nc3c4cccc(Br)c4nc(N[C@H](C)C(=O)N4C[C@H]5C[C@@H]4CO5)n3n2)cc1	IC50	1.12e-09 M
Cc1nn(C)cc1-c1nc2c3cccc(Cl)c3nc(N[C@@H]3CCCCNC3=O)n2n1	IC50	2.98e-10 M
COc1ccc(-c2nc3c4cccc(Br)c4nc(N[C@H](C)C(=O)NCCN(C)C(=O)OC(C)(C)C)n3n2)cc1	IC50	1.37e-09 M
COc1ccc(-c2nc3c4cccc(OC5CCC5)c4nc(N[C@@H]4CCCCNC4=O)n3n2)cc1	IC50	4.16e-07 M

Give me measured IC50, please, for this molecule: O=C1NCCNC[C@H]1Nc1nc2c(Cl)cccc2c2nc(-c3cnn(C4CC4)c3)nn12
9.02e-09 M

Give me measured IC50, please, for this molecule: CCn1cc(-c2nc3c4cccc(Br)c4nc(N[C@@H]4CCCCNC4=O)n3n2)cn1
8.88e-10 M

Give me measured IC50, please, for this molecule: CCn1cc(-c2nc3c4cccc(S(C)(=O)=O)c4nc(N[C@@H]4CNCCNC4=O)n3n2)c(C)n1
4.79e-07 M
